# assay-name: in vivo
# Assay type: in vivo, Sprague-Dawley rats
# protocol-conditions: Sprague-Dawley, rat, in vivo, 25 mg/kg; plasma DNP, rats
endpoint-name: half-life

smiles_input=O=[N+]([O-])c1ccc(O)c([N+](=O)[O-])c1 assay_result="8 to 12 h"

* * *

# assay-name: in vivo
# Type: in vivo, Sprague-Dawley rats
# protocol-conditions: Sprague-Dawley, rat, in vivo, 2 mg/kg per day, intragastric DNP infusion 2 mg/kg per day, 5 days, rats; read-out: steady state plasma DNP concentration
endpoint-name: concentration at 5 days

smiles_input=O=[N+]([O-])c1ccc(O)c([N+](=O)[O-])c1 assay_result="~3000 nM"

* * *

# assay-name: in vivo
# Format: in vivo, Sprague-Dawley rats
# protocol-conditions: Sprague-Dawley, rat, in vivo, 1 mg/kg, 8 hours after the last of five daily 1 mg/kg doses (FIG. 21J); read-out: DNP concentrations in all tissues following chronic treatment
endpoint-name: concentration at 8 hours

molecule="O=[N+]([O-])c1ccc(O)c([N+](=O)[O-])c1 [DNP, 2,4-dinitrophenol]" assay_result="< 10 µM"
